- Tested on: OVCAR-8 ovarian
- Test protocol: NCI tumour cell line growth inhibition, 48 h
Assay metric: TGI

Compound: CN(O)C(=O)/C=C/c1ccc(OCc2cccc(Cl)c2)cc1
Assay system: OVCAR-8 ovarian
Result: 32.8 µM

Compound: CCNc1nc(O)c(/C=C2\C=Nc3ncccc32)s1
Assay system: OVCAR-8 ovarian
Result: > 100 µM

Compound: O=C(COc1ccc(OCC(=O)N/N=C/c2ccc(-c3ccc(Cl)cc3Cl)o2)c(Cl)c1)N/N=C/c1ccc(-c2ccc(Cl)cc2Cl)o1
Assay system: OVCAR-8 ovarian
Result: > 100 µM

Compound: N#CC1(c2ccc(NC(=O)c3cccnc3NCc3ccncc3)cc2)CCCC1
Assay system: OVCAR-8 ovarian
Result: > 83.3 µM

Compound: CCc1cccc(C)c1NC(=O)CCc1nc(=S)[nH][nH]1
Assay system: OVCAR-8 ovarian
Result: > 100 µM

Compound: CC1(C)N=C(N)N=C(N)N1c1ccc(CCC(=O)Nc2ccc(S(=O)(=O)F)cc2)cc1
Assay system: OVCAR-8 ovarian
Result: > 100 µM

Compound: CN(C)C(=O)C(F)(F)C(c1ccc(F)cc1)C1C(=O)N(C)C(=O)N(C)C1=O (stereo unspecified)
Assay system: OVCAR-8 ovarian
Result: > 100 µM

Compound: O=C1C=CC2(O[C@H](c3ccccc3)[C@@H](c3ccccc3)O2)[C@H](Sc2ccccc2O)C1
Assay system: OVCAR-8 ovarian
Result: 0.217 µM

Compound: CCN(CC)CCCNc1ccc(C)c2sc3ccccc3c(=O)c12
Assay system: OVCAR-8 ovarian
Result: 3.26 µM

Compound: OCc1cn(Cc2ccccc2)c2ccccc12
Assay system: OVCAR-8 ovarian
Result: 46.9 µM

Compound: CCOC(=O)c1csc(NC(=O)C(C)N2CCCC2)n1 (stereo unspecified)
Assay system: OVCAR-8 ovarian
Result: > 100 µM

Compound: CSC1=Nc2c(c(C)c(C)n2COC(CO)CO)C2=NC(=O)CN12
Assay system: OVCAR-8 ovarian
Result: > 100 µM

Compound: Clc1cccc(-c2sc(-c3cccs3)cc2Cc2cccs2)c1
Assay system: OVCAR-8 ovarian
Result: > 10 µM

Compound: Nc1nc2c(c3cnccc13)C(c1ccc(Cl)c(Cl)c1)Cc1cnccc1-2 (stereo unspecified)
Assay system: OVCAR-8 ovarian
Result: 15 µM

Compound: O=C(/C=C/c1ccc(O)c(O)c1)OCCc1ccc2ccccc2c1
Assay system: OVCAR-8 ovarian
Result: 26.6 µM

Compound: COC(=O)/C=C(/C=C1/C(C#N)=C(N)N(c2ccc(Cl)cc2)C1(C)/C(=C\C(=O)OC)C(=O)OC)C(=O)OC (stereo unspecified)
Assay system: OVCAR-8 ovarian
Result: 33.7 µM

Compound: Cc1c(N2CCOCC2)nc2ccc(Cl)cc2c1-c1ccccc1
Assay system: OVCAR-8 ovarian
Result: > 100 µM

Compound: Cc1ccc(-c2cc(-c3ccco3)c(C#N)c(=S)[nH]2)cc1
Assay system: OVCAR-8 ovarian
Result: > 100 µM

Compound: N#Cc1c(-c2ccc([N+](=O)[O-])cc2)cc(-c2ccc(Nc3ccnc4cc(Cl)ccc34)cc2)[nH]c1=O
Assay system: OVCAR-8 ovarian
Result: > 100 µM

Compound: COc1ccc2ccc3oc(=O)c(C)cc3c2c1
Assay system: OVCAR-8 ovarian
Result: > 100 µM

Compound: OCc1ccc2c(c1)CC1(C2)Cc2cc3c(cc2C1O)CCC3 (stereo unspecified)
Assay system: OVCAR-8 ovarian
Result: 30.9 µM
